Values from patent US20250171438A1

Each record here notes measured AC50.
- assayed_target: human PAH with the R408W mutation (Homo sapiens, UniProt P00439, R408W)
- Construct: expressed in transfected cells
- Sequence (P00439 whole entry R408W): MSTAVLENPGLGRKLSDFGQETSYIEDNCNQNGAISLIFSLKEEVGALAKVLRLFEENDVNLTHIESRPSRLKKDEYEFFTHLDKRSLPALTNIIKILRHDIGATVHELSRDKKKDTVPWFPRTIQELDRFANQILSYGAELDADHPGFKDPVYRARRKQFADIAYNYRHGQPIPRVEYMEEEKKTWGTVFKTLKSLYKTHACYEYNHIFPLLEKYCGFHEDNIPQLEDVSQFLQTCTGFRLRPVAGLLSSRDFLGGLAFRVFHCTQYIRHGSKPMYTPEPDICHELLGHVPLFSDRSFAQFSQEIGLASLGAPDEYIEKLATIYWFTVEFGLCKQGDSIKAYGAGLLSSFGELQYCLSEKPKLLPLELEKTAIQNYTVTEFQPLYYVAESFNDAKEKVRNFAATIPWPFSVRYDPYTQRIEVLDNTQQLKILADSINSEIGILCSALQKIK
- protocol: Cell Based Phenylalanine Flux Assay
- condition_set: A375 cells expressing human R408W PAH; 24 hrs compound incubation; 13C-Tyrosine by LC-MS; average where tested multiple times; read-out: AC50

O=C(CCc1nccs1)N1CCc2[nH]cnc2[C@H]1c1ncc(-c2ccccc2)s1 [Example 2141]; < 0.5 µM
COc1ccn2ncc(C(=O)N3CCc4[nH]cnc4[C@H]3c3nc4c(F)cccc4s3)c2c1 [Example 1197]; 0.5 to 1 µM
Cc1c(-c2ncc(C(=O)N3CCc4[nH]cnc4[C@@H]3c3nc4ccccc4s3)s2)cnn1C [Example 1360]; 1 to 5 µM
C[C@H](O)c1nc(C(F)F)c(C(=O)N2CCc3[nH]cnc3[C@H]2c2nc3c(F)cccc3s2)o1 [Example 1961]; < 0.5 µM
Cc1cccc2sc([C@H]3c4nc[nH]c4CCN3C(=O)c3ncnn3C)nc12 [Example 2016]; > 5 µM
O=C(c1cncs1)N1CCc2[nH]cnc2[C@H]1c1nc2ccc(Br)cc2[nH]1 [Example 947]; 0.5 to 1 µM
O=C(c1cnn2c(Br)cccc12)N1CCc2[nH]cnc2[C@@H]1c1nc2c(F)cccc2s1 [Example 1240]; 1 to 5 µM
O=C(N1CCc2[nH]cnc2[C@H]1c1nc2ccccc2s1)C(F)(F)C1CC1 [Example 1253]; 0.5 to 1 µM

Q. What is its AC50 for human PAH with the R408W mutation (Homo sapiens, UniProt P00439, R408W)? Entry: Cc1cnc(CCC(=O)N2CCc3[nH]cnc3[C@@H]2c2nc3ccccc3s2)s1 [Example 1032]
A. > 5 µM

Q. Report AC50 for Cc1nc(CCN(C)C)oc1C(=O)N1CCc2[nH]cnc2[C@@H]1c1nc2ccccc2s1 [Example 1660] tested on human PAH with the R408W mutation (Homo sapiens, UniProt P00439, R408W).
A. > 5 µM

Q. Lab note: need AC50 with human PAH with the R408W mutation (Homo sapiens, UniProt P00439, R408W) for entry O=C(c1cnn2cc(F)ccc12)N1CCc2[nH]cnc2[C@@H]1c1nc2c(F)cccc2s1 [Example 1216] , please look it up.
A. 1 to 5 µM

Q. # get_value(readout= AC50, system= human PAH with the R408W mutation (Homo sapiens, UniProt P00439, R408W)) for Cn1nc(C2CCC2)cc1C(=O)N1CCc2[nH]cnc2[C@@H]1c1nc2c(F)cccc2s1 [Example 1854]
A. 1 to 5 µM

Q. Report AC50 for O=C(c1cnc(C2CC2)o1)N1CCc2[nH]cnc2[C@H]1c1nc2ccccc2s1 [Example 1187] tested on human PAH with the R408W mutation (Homo sapiens, UniProt P00439, R408W).
A. 0.5 to 1 µM

Q. Return AC50 measured with human PAH with the R408W mutation (Homo sapiens, UniProt P00439, R408W) given this compound: CCn1cnnc1C(=O)N1CCc2[nH]cnc2[C@@H]1c1nc2c(F)cccc2s1 [Example 2043]
A. 1 to 5 µM

Q. Form: Entry = CC(C)(O)c1c(Br)ccc2c(C(=O)N3CCc4[nH]cnc4[C@@H]3c3nc4ccccc4s3)cnn12 [Example 1476] | System = human PAH with the R408W mutation (Homo sapiens, UniProt P00439, R408W) | AC50 = ____
A. 1 to 5 µM
